# systemUnderTest: T1, human PCSK9 (PCSK9 antigen, SEQ ID NO. 53) (human, UniProt A8T644 31-152; Q8NBP7 153-692, Biotin-labelled on amines in the MSD-SET and sorting experiments; positions not given.)
# T1 construct: Biotin-labelled in MSD-SET; also called PCSK9-WT; PCSK9 protein
# experiment: flow cytometry, PCSK9 left on CHO-LDLR cells (anti-His-FITC) after premix with 0.1 nM antibody
Fluorescence Signal Value for assorted binders
Please state the value as a number alone, without comment.

| binder | metricName | reportedMeasurement |
| --- | --- | --- |
| Lodelcizumab (antibody, V domains shown) VH: QVQLVQSGAEVKKPGASVKVSCKASGYTFSTMYMSWVRQAPGQGLEWMGRIDPANEHTNYAQKFQGRVTMTRDTSISTAYMELSRLTSDDTAVYYCARSYYYYNMDYWGQGTLVTVSS VL: QIVLTQSPATLSVSPGERATLSCRASQSVSYMHWYQQKPGQAPRLLIYGVFRRATGIPDRFSGSGSGTDFTLTIGRLEPEDFAVYYCLQWSSDPPTFGQGTKLEIK | Fluorescence Signal Value | 8400 |

query: Return value of Fluorescence Signal Value for input ADI-10088 (antibody, human IgG2, kappa, V domains shown, IgG) VH: QLQLQESGPGLVKPSETLSLTCTVSGGSIGSSSYYWAWIRQPPGKGLEWIGSINYRGSTYYNPSLKSRVTISVDTSKNQFSLKLSSVTAADTAVYYCARENSGVVPAAGPNWFDPWGQGTLVTVSS VL: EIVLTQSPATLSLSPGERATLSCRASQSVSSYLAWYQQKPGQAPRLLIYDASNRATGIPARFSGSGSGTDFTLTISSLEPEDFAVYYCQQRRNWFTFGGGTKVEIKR , no commentary.
result: 6800

query: Return value of Fluorescence Signal Value for input Bococizumab (antibody, V domains shown) VH: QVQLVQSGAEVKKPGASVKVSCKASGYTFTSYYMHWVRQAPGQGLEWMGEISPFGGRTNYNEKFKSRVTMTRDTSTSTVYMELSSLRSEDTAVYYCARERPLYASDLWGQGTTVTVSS VL: DIQMTQSPSSLSASVGDRVTITCRASQGISSALAWYQQKPGKAPKLLIYSASYRYTGVPSRFSGSGSGTDFTFTISSLQPEDIATYYCQQRYSLWRTFGQGTKLEIK , no commentary.
result: 7100
